EXPERIMENTAL TARGET: Orexin receptor type 2 (Homo sapiens)
Sequence (whole entry): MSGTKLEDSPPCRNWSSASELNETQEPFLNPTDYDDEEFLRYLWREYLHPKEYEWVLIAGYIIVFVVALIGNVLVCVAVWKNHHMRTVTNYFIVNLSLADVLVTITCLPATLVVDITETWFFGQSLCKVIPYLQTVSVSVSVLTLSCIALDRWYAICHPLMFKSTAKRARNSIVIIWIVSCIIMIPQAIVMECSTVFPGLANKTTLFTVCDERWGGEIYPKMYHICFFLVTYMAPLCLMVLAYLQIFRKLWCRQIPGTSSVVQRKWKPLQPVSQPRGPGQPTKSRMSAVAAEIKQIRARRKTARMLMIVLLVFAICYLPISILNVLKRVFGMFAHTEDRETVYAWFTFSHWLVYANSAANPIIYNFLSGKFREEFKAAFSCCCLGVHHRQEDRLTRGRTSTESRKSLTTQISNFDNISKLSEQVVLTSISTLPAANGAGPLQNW
ASSAY EXPLANATION: Agonist activity at human OX2 receptor overexpressed in CHO-RD-HGA16 cells assessed as calcium mobilization at 10 uM after 15 mins by fluorescence assay relative to control
Assay type: functional, cell-based
Active and inactive are the calls of the source. No cut-off for these calls is given here. Where a SMILES comes first, the peptide text is derived from it.

- MOLECULE: "CC(C)C[C@H](NC(=O)[C@@H](NC(=O)[C@H](CC(C)C)NC(=O)[C@H](C)NC(=O)CNC(=O)[C@H](C)NC(=O)[C@H](C)NC(=O)[C@H](Cc1cnc[nH]1)NC(=O)[C@H](CC(N)=O)NC(=O)CNC(=O)[C@H](C)NC(=O)CNC(=O)[C@H](Cc1cnc[nH]1)NC(=O)[C@H](CC(C)C)NC(=O)[C@H](CC(C)C)NC(=O)[C@H](CCC(=O)O)NC(=O)[C@@H](N)Cc1ccc(O)cc1)[C@@H](C)O)C(N)=O (H-YELLHGAGNHAAGALTL-NH2)"
  Activity: "inactive"
- MOLECULE: "CC[C@@H](C)[C@@H](NC(=O)CNC(=O)[C@H](C)NC(=O)[C@H](C)NC(=O)[C@H](Cc1cnc[nH]1)NC(=O)[C@H](CC(N)=O)NC(=O)CNC(=O)[C@H](C)NC(=O)CNC(=O)[C@H](Cc1cnc[nH]1)NC(=O)[C@H](CC(C)C)NC(=O)[C@H](CC(C)C)NC(=O)[C@H](CCC(=O)O)NC(=O)[C@@H](N)Cc1ccc(O)cc1)C(=O)N[C@@H](CC(C)C)C(=O)N[C@H](C(=O)N[C@@H](CC(C)C)C(N)=O)[C@@H](C)O"
  Activity: "inactive"
- MOLECULE: "CC[C@H](C)[C@H](NC(=O)CNC(=O)[C@H](C)NC(=O)[C@H](C)NC(=O)[C@H](Cc1cnc[nH]1)NC(=O)[C@H](CC(N)=O)NC(=O)CNC(=O)[C@H](C)NC(=O)CNC(=O)[C@H](Cc1cnc[nH]1)NC(=O)[C@H](CC(C)C)NC(=O)[C@H](CC(C)C)NC(=O)[C@H](CCC(=O)O)NC(=O)[C@@H](N)Cc1ccc(O)cc1)C(=O)N[C@@H](CC(C)C)C(=O)N[C@@H](C(=O)N[C@@H](CC(C)C)C(N)=O)[C@H](C)O"
  Activity: "inactive"

----------
EXPERIMENTAL TARGET: Orexin receptor type 2 (Homo sapiens) (UniProt O43614)
ASSAY EXPLANATION: Agonist activity at human OX2 receptor overexpressed in CHO-RD-HGA16 cells assessed as calcium mobilization at 10 uM after 15 mins by fluorescence assay relative to control
Type: functional, cell-based
Activity calls are given as the source filed them. No cut-off for these calls is given here. Where a SMILES comes first, the peptide text is derived from it.

- MOLECULE: "CC[C@H](C)[C@H](NC(=O)CNC(=O)[C@H](C)NC(=O)[C@H](C)NC(=O)[C@H](Cc1cnc[nH]1)NC(=O)[C@H](CC(N)=O)NC(=O)CNC(=O)[C@H](C)NC(=O)CNC(=O)[C@H](Cc1cnc[nH]1)NC(=O)[C@H](CC(C)C)NC(=O)[C@H](CC(C)C)NC(=O)[C@H](CCC(=O)O)NC(=O)[C@@H](N)Cc1ccc(O)cc1)C(=O)N[C@@H](CC(C)C)C(=O)N[C@H](C(=O)N[C@H](CC(C)C)C(N)=O)[C@@H](C)O"
  Activity: "inactive"
- MOLECULE: "CC[C@H](C)[C@H](NC(=O)CNC(=O)[C@H](C)NC(=O)[C@H](C)NC(=O)[C@H](Cc1cnc[nH]1)NC(=O)[C@H](CC(N)=O)NC(=O)CNC(=O)[C@H](C)NC(=O)CNC(=O)[C@H](Cc1cnc[nH]1)NC(=O)[C@H](CC(C)C)NC(=O)[C@H](CC(C)C)NC(=O)[C@H](CCC(=O)O)NC(=O)[C@@H](N)Cc1ccc(O)cc1)C(=O)N[C@@H](C)C(=O)N[C@H](C(=O)N[C@@H](CC(C)C)C(N)=O)[C@@H](C)O (H-YELLHGAGNHAAGIATL-NH2)"
  Activity: "inactive"
- MOLECULE: "CC[C@H](C)[C@H](NC(=O)CNC(=O)[C@H](C)NC(=O)[C@H](C)NC(=O)[C@H](Cc1cnc[nH]1)NC(=O)[C@H](CC(N)=O)NC(=O)CNC(=O)[C@H](C)NC(=O)CNC(=O)[C@H](Cc1cnc[nH]1)NC(=O)[C@H](CC(C)C)NC(=O)[C@H](CC(C)C)NC(=O)[C@H](CCC(=O)O)NC(=O)[C@@H](N)Cc1ccc(O)cc1)C(=O)N[C@@H](CC(C)C)C(=O)N[C@H](C(=O)N[C@@H](C)C(N)=O)[C@@H](C)O (H-YELLHGAGNHAAGILTA-NH2)"
  Activity: "inactive"

----------
EXPERIMENTAL TARGET: Orexin/Hypocretin receptor type 1 (Homo sapiens, UniProt O43613)
Sequence (O43613 whole entry): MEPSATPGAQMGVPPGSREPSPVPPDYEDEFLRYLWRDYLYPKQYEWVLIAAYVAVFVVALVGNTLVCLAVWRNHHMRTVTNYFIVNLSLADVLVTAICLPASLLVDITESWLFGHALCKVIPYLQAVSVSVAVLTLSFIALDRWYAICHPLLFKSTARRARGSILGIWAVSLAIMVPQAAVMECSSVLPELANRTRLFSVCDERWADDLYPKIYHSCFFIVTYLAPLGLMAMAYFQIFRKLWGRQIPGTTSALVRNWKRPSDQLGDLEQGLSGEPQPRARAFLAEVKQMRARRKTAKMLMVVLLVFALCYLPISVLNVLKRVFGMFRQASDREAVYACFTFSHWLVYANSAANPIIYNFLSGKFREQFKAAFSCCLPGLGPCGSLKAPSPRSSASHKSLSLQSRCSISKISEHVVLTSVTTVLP
ASSAY EXPLANATION: Agonist activity at human OX1 receptor overexpressed in CHO-RD-HGA16 cells assessed as calcium mobilization after 15 mins by fluorescence assay
Where a SMILES comes first, the peptide text is derived from it.
QUANTITY: EC50 (nM)
One number for each entry, in nM.

Answered examples (2):
- COMPOUND: "CC[C@H](C)[C@H](NC(=O)CNC(=O)[C@H](C)NC(=O)[C@H](C)NC(=O)[C@H](Cc1cnc[nH]1)NC(=O)[C@H](CC(N)=O)NC(=O)CNC(=O)[C@H](C)NC(=O)CNC(=O)[C@H](Cc1cnc[nH]1)NC(=O)[C@H](CC(C)C)NC(=O)[C@@H]1CCCN1C(=O)[C@H](CCC(=O)O)NC(=O)[C@@H](N)Cc1ccc(O)cc1)C(=O)N[C@@H](CC(C)C)C(=O)N[C@H](C(=O)N[C@@H](CC(C)C)C(N)=O)[C@@H](C)O (H-YEPLHGAGNHAAGILTL-NH2)"
  QUANTITY: "EC50"
  MEASUREMENT UNIT: "nM"
  READOUT NUMBER: 865
- COMPOUND: "CC[C@H](C)[C@H](NC(=O)CNC(=O)[C@H](C)NC(=O)[C@H](C)NC(=O)[C@H](Cc1cnc[nH]1)NC(=O)[C@H](CC(N)=O)NC(=O)CNC(=O)[C@H](C)NC(=O)CNC(=O)[C@H](C)NC(=O)[C@H](CC(C)C)NC(=O)[C@H](CC(C)C)NC(=O)[C@H](CCC(=O)O)NC(=O)[C@@H](N)Cc1ccc(O)cc1)C(=O)N[C@@H](CC(C)C)C(=O)N[C@H](C(=O)N[C@@H](CC(C)C)C(N)=O)[C@@H](C)O (H-YELLAGAGNHAAGILTL-NH2)"
  QUANTITY: "EC50"
  MEASUREMENT UNIT: "nM"
  READOUT NUMBER: 493

Below: the item to evaluate.
Asked: For the compound CC[C@H](C)[C@H](NC(=O)CNC(=O)[C@H](C)NC(=O)[C@H](C)NC(=O)[C@H](Cc1cnc[nH]1)NC(=O)[C@H](CC(N)=O)NC(=O)CNC(=O)[C@H](C)NC(=O)CNC(=O)[C@H](Cc1cnc[nH]1)NC(=O)[C@H](C)NC(=O)[C@H](CC(C)C)NC(=O)[C@H](CCC(=O)O)NC(=O)[C@@H](N)Cc1ccc(O)cc1)C(=O)N[C@@H](CC(C)C)C(=O)N[C@H](C(=O)N[C@@H](CC(C)C)C(N)=O)[C@@H](C)O (H-YELAHGAGNHAAGILTL-NH2) , give its measured EC50 value.
Given back: 3230
